- Tested on: Hepatotoxicity
- study-conditions: Liver
Classify as follows. Reported HepSE_Combined Scores greater than or equal to 1: TRUE. Reported HepSE_Combined Scores below: FALSE.

compound	category-label
Nc1c2c(nc3ccccc13)CCCC2	TRUE
O=C(O)c1cn(C2CC2)c2cc(N3CCNCC3)c(F)cc2c1=O	TRUE
CN1CCC[C@H]1c1cccnc1	FALSE

Now consider the entry below.
Req: Please check the record Nc1ccc(S(=O)(=O)c2ccc(N)cc2)cc1 and state if its HepSE_Combined Scores is at or above 1.
Resp: FALSE

###

- Tested on: Hepatotoxicity;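 also: combined hepatic side effect score as listed in the training data of the Drug Induced Liver Injury Prediction System (DILIps)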
measurement-type: HepSE_Combined Scores
Write the value as a bare number.

Req: So what does the record say about HepSE_Combined Scores for CC[N+](C)(C)Cc1ccccc1Br ?
Resp: 0

Req: What about this molecule? CC(C)NCC(O)COc1ccc(COCCOC(C)C)cc1 (stereo not given)
Resp: 0

Req: What about this molecule? C=CCC1(C(C)C#CCC)C(=O)N=C(O)N(C)C1=O (stereo not given)
Resp: 1

Req: What about this molecule? O=C(N[C@H](CO)[C@H](O)c1ccc([N+](=O)[O-])cc1)C(Cl)Cl
Resp: 0

Req: What about this molecule? Oc1ncnc2[nH]ncc12
Resp: 5

Req: What about this molecule? CC1Cc2ccccc2N1NC(=O)c1ccc(Cl)c(S(N)(=O)=O)c1 (stereo not given) [INDAPAMIDE]
Resp: 3

Req: What about this molecule? Nc1nc2ccc(OC(F)(F)F)cc2s1
Resp: 3

Req: What about this molecule? O=[N+]([O-])OCC(CO[N+](=O)[O-])O[N+](=O)[O-]
Resp: 0

Req: What about this molecule? CC(=O)NC[C@H]1CN(c2ccc(N3CCOCC3)c(F)c2)C(=O)O1
Resp: 2

Req: What about this molecule? Nc1ncnc2c1ncn2[C@@H]1O[C@H](COP(=O)(S)S)[C@@H](O)[C@H]1O
Resp: 6
